Listed below: IC50 values for each entry.
# target or system: EGFR L858R/T790M/C797S (Homo sapiens, UniProt P00533, C797S/L858R/T790M)
# Sequence (P00533 25-1210 T790M/C797S/L858R): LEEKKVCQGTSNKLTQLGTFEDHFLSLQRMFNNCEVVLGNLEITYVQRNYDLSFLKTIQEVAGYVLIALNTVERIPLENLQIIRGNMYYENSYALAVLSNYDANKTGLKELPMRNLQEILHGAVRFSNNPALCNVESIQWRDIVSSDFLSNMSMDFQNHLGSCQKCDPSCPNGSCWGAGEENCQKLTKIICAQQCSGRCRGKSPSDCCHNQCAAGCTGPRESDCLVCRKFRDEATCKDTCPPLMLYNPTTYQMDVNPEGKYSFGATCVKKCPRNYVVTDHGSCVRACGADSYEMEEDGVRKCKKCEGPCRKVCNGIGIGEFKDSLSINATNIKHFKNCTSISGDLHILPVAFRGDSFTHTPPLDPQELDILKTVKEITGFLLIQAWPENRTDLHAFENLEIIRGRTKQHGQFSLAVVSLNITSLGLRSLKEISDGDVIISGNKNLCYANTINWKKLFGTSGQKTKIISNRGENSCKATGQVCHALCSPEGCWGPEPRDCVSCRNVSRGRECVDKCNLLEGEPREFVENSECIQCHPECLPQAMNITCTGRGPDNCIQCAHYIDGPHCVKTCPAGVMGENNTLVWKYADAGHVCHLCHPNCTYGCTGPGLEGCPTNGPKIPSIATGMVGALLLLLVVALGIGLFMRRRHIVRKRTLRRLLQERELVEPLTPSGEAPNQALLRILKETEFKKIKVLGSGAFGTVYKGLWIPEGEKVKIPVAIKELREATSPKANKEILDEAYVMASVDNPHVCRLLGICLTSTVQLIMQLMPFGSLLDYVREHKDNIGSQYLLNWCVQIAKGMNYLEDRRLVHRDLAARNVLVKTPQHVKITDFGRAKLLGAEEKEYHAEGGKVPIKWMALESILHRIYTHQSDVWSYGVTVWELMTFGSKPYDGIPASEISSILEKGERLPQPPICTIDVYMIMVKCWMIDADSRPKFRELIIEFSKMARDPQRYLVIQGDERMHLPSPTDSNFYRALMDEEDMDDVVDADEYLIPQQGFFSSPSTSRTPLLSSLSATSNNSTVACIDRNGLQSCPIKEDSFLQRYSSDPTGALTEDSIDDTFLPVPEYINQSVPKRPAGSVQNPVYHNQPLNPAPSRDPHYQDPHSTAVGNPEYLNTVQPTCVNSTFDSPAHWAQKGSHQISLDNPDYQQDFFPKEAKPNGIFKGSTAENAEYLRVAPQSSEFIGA
# experiment summary: Biochemical EGFR kinase assay (Lance Ultra TR-FRET), L858R/T790M/C797S
# test parameters: IC50 L858R/T790M/C797S (nM) 100 μM ATP, 100 μM ATP
Give just the number in nM; leave the unit off.

// known answers, use as guide
O=C(c1cnc(Nc2ccnc(-c3cnn(S(=O)(=O)C4CC4)c3)n2)cc1NC1CCC(F)(CO)CC1)C1CC1 (stereo not drawn) | 4.3
CC1(CO)CCN(c2cc(Nc3ccnc(-c4cnn(S(=O)(=O)C5CC5)c4)n3)ncc2F)CC1 | 21.5
CNC[C@H]1CC[C@H](CNc2cc(Nc3ccnc(-c4cnn(S(=O)(=O)C5CC5)c4)n3)ncc2C(=O)C2CC2)CC1 | 0.1
O=C(c1cnc(Nc2ccnc(-c3cnn(S(=O)(=O)C4CC4)c3)n2)cc1NC1CCN(C2COC2)CC1)C1CC1 | 9.9

The measured IC50 that CN(C)CCNC1CCC(Nc2cc(Nc3ccnc(-c4cnn(S(=O)(=O)C5CC5)c4)n3)ncc2C(=O)C2CC2)CC1 (stereo not drawn) showed for EGFR L858R/T790M/C797S (Homo sapiens, UniProt P00533, C797S/L858R/T790M) is 0.5

The measured IC50 that `O=C(NCCF)c1cnc(Nc2ccnc(-c3cnn(S(=O)(=O)C4CC4)c3)n2)cc1N[C@H]1CC[C@@H](NCCF)CC1` showed for EGFR L858R/T790M/C797S (Homo sapiens, UniProt P00533, C797S/L858R/T790M) is 1.6

* * *

# target or system: EGFR del19/T790M/C797S (Homo sapiens, UniProt P00533, C797S/DEL746-750/T790M)
# Sequence (P00533 with tags, fused parts or gaps DEL746-750/T790M/C797S): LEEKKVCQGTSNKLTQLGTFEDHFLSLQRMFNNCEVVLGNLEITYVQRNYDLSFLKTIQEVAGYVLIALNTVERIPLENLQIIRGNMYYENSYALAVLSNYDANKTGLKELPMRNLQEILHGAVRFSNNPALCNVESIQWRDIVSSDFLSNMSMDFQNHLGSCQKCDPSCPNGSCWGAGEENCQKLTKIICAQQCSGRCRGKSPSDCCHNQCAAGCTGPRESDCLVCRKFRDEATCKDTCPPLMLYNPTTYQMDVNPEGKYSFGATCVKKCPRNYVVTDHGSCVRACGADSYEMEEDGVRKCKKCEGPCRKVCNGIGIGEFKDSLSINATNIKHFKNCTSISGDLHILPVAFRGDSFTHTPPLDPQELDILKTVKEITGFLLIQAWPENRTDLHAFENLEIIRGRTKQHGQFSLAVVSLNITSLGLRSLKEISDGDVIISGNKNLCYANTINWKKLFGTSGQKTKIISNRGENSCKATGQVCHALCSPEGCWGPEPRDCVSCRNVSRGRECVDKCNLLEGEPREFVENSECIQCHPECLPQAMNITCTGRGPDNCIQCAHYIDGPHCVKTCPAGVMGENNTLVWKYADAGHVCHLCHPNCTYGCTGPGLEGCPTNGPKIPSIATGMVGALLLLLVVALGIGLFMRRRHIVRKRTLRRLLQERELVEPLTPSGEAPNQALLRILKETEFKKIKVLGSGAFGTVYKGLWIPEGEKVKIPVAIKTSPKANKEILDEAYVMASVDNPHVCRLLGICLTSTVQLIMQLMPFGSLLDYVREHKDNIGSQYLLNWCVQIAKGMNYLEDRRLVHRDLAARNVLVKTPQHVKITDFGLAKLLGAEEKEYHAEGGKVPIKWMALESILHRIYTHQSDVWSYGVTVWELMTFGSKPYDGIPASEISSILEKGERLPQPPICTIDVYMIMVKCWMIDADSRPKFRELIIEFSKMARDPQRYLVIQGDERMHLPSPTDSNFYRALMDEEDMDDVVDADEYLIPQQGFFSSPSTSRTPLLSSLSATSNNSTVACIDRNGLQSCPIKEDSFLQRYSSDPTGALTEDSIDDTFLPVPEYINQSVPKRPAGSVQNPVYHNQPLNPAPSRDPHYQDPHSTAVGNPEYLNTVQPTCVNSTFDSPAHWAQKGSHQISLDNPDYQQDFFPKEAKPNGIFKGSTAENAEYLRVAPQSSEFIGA
# experiment summary: Biochemical EGFR kinase assay (Lance Ultra TR-FRET), del19/T790M/C797S
# test parameters: IC50 del19/T790M/C797S (nM) 100 μM ATP, 100 μM ATP
Hi! Could you tag entries with IC50 below 0.5 nM as Yes, and those at or above as No? Much appreciated.

Field: example entries. Status: answers known.
CC(C)Nc1cc(Nc2ccnc(-c3cnn(S(=O)(=O)C4CC4)c3)n2)ncc1C(=O)NCCF | No
CN[C@H]1CC[C@H](CNc2cc(Nc3ccnc(-c4cnn(S(=O)(=O)C5CC5)c4)n3)ncc2C(=O)C2CC2)CC1 | Yes
O=C(c1cnc(Nc2ccnc(-c3cnn(S(=O)(=O)C4CC4)c3)n2)cc1N[C@H]1CC[C@@H](CO)CC1)C(F)F | Yes
CC(C)Nc1cc(Nc2ccnc(-c3cnn(S(=O)(=O)C4CC4)c3)n2)ncc1C1=CCCCO1 | No
O=C(c1cnc(Nc2ccnc(-c3cnn(S(=O)(=O)C4CC4)c3)n2)cc1N[C@H]1CC[C@@H](O)CC1)C1CC1 | No

# input for lookup
Exam item: Would you kindly verify if IC50 of `O=C(c1cnc(Nc2ccnc(-c3cnn(S(=O)(=O)C4CC4)c3)n2)cc1N[C@H]1CCC[C@H](O)C1)C1CC1` is strictly less than 0.5 nM?
Marked response: No

* * *

# target or system: EGFR del19/T790M/C797S (Homo sapiens, UniProt P00533, C797S/DEL746-750/T790M)
# experiment summary: Biochemical EGFR kinase assay (Lance Ultra TR-FRET), del19/T790M/C797S
# test parameters: IC50 del19/T790M/C797S (nM) 100 μM ATP, 100 μM ATP
# Procedure: Biochemical EGFR kinase assays were conducted using Lance Ultra time-resolved fluorescence resonance energy transfer (TR-FRET) technology from Perkin-Elmer. […] Each kinase reactions were incubated at room temperature for 1 hour and then stopped by the addition of 4 μL of stop solution (10 mM EDTA). […] After 60 minutes incubation at room temperature the LANCE signal was measured on an EnVision Multilabel Reader (Perkin-Elmer). […]
Hi! Could you tag entries with IC50 below 1 nM as label 1, and those at or above as label 0? Much appreciated.

Field: example entries. Status: answers known.
CN(C)C1CCN(CCNC2CCC(Nc3cc(Nc4ccnc(-c5cnn(S(=O)(=O)C6CC6)c5)n4)ncc3C(=O)C3CC3)CC2)CC1 (stereo not shown) | label 1
C[C@]1(O)CC[C@@H](Nc2cc(Nc3ccnc(-c4cnn(S(=O)(=O)C5CC5)c4)n3)ncc2C(=O)NCCF)CC1 | label 1
O=C(c1cnc(Nc2ccnc(-c3cnn(S(=O)(=O)C4CC4)c3)n2)cc1NC1CCCOC1)C1CC1 (stereo not shown) | label 0

Exam item: Would you kindly verify if IC50 of `O=C(c1cnc(Nc2ccnc(-c3cnn(S(=O)(=O)C4CC4)c3)n2)cc1NCCC1(O)CC1)C1CC1` is strictly less than 1 nM?
Marked response: label 0

Exam item: Would you kindly verify if IC50 of O=C(c1cnc(Nc2ccnc(-c3cnn(S(=O)(=O)C4CC4)c3)n2)cc1NC1CC[C@@H](O)[C@@H](O)C1)C1CC1 (stereo partly shown) is strictly less than 1 nM?
Marked response: label 1

Exam item: Would you kindly verify if IC50 of `CNC[C@H]1CC[C@H](CNc2cc(Nc3ccnc(-c4cnn(S(=O)(=O)C5CC5)c4)n3)ncc2C(=O)C2CC2)CC1` is strictly less than 1 nM?
Marked response: label 1

Exam item: Would you kindly verify if IC50 of O=C(c1cnc(Nc2ccnc(-c3cnn(S(=O)(=O)C4CC4)c3)n2)cc1NC1CCC(NCCO)CC1)C1CC1 (stereo not shown) is strictly less than 1 nM?
Marked response: label 0

* * *

Listed below: IC50 values for each entry.
# target or system: EGFR del19/T790M/C797S (Homo sapiens, UniProt P00533, C797S/DEL746-750/T790M)
# experiment summary: Biochemical EGFR kinase assay (Lance Ultra TR-FRET), del19/T790M/C797S
# test parameters: Km ATP; read-out: IC50 del19/T790M/C797S (nM) Km ATP
Give just the number in nM; leave the unit off.

// known answers, use as guide
CN(C)CC1CCC(CNc2cc(Nc3ccnc(-c4cnn(C5CCOC5)c4)n3)ncc2C(=O)C2CC2)CC1 (stereo not shown) | 9.8
C[C@]1(O)CC[C@@H](Nc2cc(Nc3ccnc(-c4cnn(S(=O)(=O)C5CC5)c4)n3)ncc2C(=O)NCCF)CC1 | 0.2
CC(=O)c1cnc(Nc2ccnc(-c3cnn(S(=O)(=O)C4CC4)c3)n2)cc1NC(C)(C)C(C)O (stereo not shown) | 0.6

The measured IC50 that `CCCNc1cc(Nc2ccnc(-c3cnn(S(=O)(=O)C4CC4)c3)n2)ncc1C(C)=O` showed for EGFR del19/T790M/C797S (Homo sapiens, UniProt P00533, C797S/DEL746-750/T790M) is 0.9

The measured IC50 that `O=C(c1cnc(Nc2ccnc(-c3cnn(S(=O)(=O)C4CC4)c3)n2)cc1NCc1cnn(CCF)c1)C1CC1` showed for EGFR del19/T790M/C797S (Homo sapiens, UniProt P00533, C797S/DEL746-750/T790M) is 10.9

The measured IC50 that `C[C@@H](CCO)Nc1cc(Nc2ccnc(-c3cnn(S(=O)(=O)C4CC4)c3)n2)ncc1C(=O)C1CC1` showed for EGFR del19/T790M/C797S (Homo sapiens, UniProt P00533, C797S/DEL746-750/T790M) is 0.4

The measured IC50 that `CN(C)CCNc1cc(Nc2ccnc(-c3cnn(S(=O)(=O)C4CC4)c3)n2)ncc1C(=O)C1CC1` showed for EGFR del19/T790M/C797S (Homo sapiens, UniProt P00533, C797S/DEL746-750/T790M) is 4.7

* * *

# target or system: EGFR del19/C797S (Homo sapiens, UniProt P00533, C797S/DEL746-750)
# Sequence (P00533 with tags, fused parts or gaps DEL746-750/C797S): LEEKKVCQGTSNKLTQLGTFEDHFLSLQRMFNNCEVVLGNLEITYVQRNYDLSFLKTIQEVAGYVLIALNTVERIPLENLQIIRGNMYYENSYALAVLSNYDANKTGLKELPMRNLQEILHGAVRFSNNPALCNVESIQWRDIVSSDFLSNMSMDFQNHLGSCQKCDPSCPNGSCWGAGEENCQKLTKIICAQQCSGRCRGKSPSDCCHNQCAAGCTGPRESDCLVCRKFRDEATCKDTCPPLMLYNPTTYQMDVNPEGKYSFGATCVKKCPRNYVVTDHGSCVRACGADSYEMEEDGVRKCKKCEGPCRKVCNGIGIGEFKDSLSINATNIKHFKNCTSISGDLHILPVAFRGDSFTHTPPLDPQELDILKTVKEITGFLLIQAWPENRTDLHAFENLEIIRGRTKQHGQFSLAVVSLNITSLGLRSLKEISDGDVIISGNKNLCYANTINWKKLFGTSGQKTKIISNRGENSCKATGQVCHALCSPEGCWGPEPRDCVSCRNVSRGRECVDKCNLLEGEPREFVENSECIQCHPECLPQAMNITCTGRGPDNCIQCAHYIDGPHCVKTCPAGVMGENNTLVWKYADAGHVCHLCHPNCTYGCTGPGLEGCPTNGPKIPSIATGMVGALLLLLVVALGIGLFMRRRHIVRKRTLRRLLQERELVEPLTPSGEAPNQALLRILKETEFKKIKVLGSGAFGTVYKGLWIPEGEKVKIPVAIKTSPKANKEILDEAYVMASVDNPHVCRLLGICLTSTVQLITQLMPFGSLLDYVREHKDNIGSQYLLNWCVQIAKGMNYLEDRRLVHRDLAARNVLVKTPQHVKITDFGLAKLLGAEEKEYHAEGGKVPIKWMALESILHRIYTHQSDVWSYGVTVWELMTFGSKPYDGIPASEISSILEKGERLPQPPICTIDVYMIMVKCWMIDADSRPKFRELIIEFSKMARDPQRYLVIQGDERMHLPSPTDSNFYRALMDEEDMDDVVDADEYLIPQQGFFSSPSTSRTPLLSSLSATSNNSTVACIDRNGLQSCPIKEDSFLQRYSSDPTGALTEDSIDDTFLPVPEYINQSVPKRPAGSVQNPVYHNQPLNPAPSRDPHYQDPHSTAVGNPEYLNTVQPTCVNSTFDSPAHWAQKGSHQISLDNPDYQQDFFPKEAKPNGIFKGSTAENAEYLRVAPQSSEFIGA
# experiment summary: Biochemical EGFR kinase assay (Lance Ultra TR-FRET), del19/C797S
# test parameters: Km ATP; read-out: IC50 del19/C797S (nM) Km ATP
parameter: IC50 (nM)
Give just the number in nM; leave the unit off.

// known answers, use as guide
O=C(NCCF)c1cnc(Nc2ccnc(-c3cnn(S(=O)(=O)C4CC4)c3)n2)cc1N[C@H]1CC[C@@H](NCCF)CC1 [Example 77] | 5.6
O=C(c1cnc(Nc2ccnc(-c3cnn(S(=O)(=O)C4CC4)c3)n2)cc1NCCCO)C1CC1 [Example 9] | 70.7
CCCNc1cc(Nc2ccnc(-c3cnn(S(=O)(=O)C4CC4)c3)n2)ncc1C(C)=O [Example 45] | 205
CC(O)C(C)(C)Nc1cc(Nc2ccnc(-c3cnn(S(=O)(=O)C4CC4)c3)n2)ncc1C(=O)C1CC1 (stereo not drawn) [Example 12] | 58.2
O=C(c1cnc(Nc2ccnc(-c3cnn(S(=O)(=O)C4CC4)c3)n2)cc1NC[C@H]1CC[C@H](Cn2cccn2)CC1)C1CC1 [Example 44] | 242

# evaluate next
O=C(c1cnc(Nc2ccnc(-c3cnn(S(=O)(=O)C4CC4)c3)n2)cc1NCC1CCN(CC2CC2)CC1)C1CC1 [Example 18] has a reported IC50 of 1
